- System: Trichophyton rubrum
- Test: Antifungal activity in vitro, resazurin growth inhibition: Trichophyton rubrum (B68183)
- Type: cell-based
Quantity Measured: Inf. C: Trichophyton rubrum B68183, pIC50
Give bare numbers.

>>> recorded_number("CCc1csc(C2=NCc3c(Cl)cc(Cl)cc3-n3cccc32)n1")
5.09
>>> recorded_number("Cc1ccc2oc(C3=NCc4c(Cl)cccc4-n4cccc43)cc2c1")
7.16
>>> recorded_number("Fc1cccc2c1CN=C(c1ccc3sccc3c1)c1cccn1-2")
7.36
>>> recorded_number("Br.Clc1cccc2c1-n1cccc1C(c1ccncc1)NC2 (racemic)")
4.74
>>> recorded_number("Cc1ccc(Cl)c2c1-n1cccc1C(c1cc3ccccc3s1)=NC2")
6.01

Give Inf. C: Trichophyton rubrum B68183, pIC50 for each listed item.
1. Cl.Clc1cccc2c1CNC(c1nc3ccccc3s1)c1cccn1-2 (racemic)
2. Cn1ccc2ccc(C3=NCc4c(Cl)cccc4-n4cccc43)cc21
3. CCc1csc(C2=NCc3c(Cl)cccc3-n3cccc32)n1
4. Cn1nc2ccc(C3=NCc4c(Cl)cccc4-n4cccc43)cc2n1
5. Cl.Fc1ccc2oc(C3NCc4ccc(Cl)cc4-n4cccc43)cc2c1 (racemic)
6. Cc1ccc2cc(C3NCc4ccccc4-n4cccc43)oc2c1.Cl (racemic)
7. Cn1nnc2ccc(C3=NCc4c(Cl)cccc4-n4cccc43)cc21

1: 6.47; 2: 6.77; 3: 5.58; 4: 5.99; 5: 5.39; 6: 5.22; 7: 5.96

Give Inf. C: Trichophyton rubrum B68183, pIC50 for each listed item.
1. Cl.FC(F)(F)c1ccc(C2NCc3c(Cl)cccc3-n3cccc32)nn1 (racemic)
2. Fc1ccc2oc(C3=NCc4c(Cl)cccc4-n4cccc43)cc2c1
3. Cc1cc(C2=NCc3c(C)cccc3-n3cccc32)ccn1
4. Cc1cccc2c1-n1cccc1C(c1cc3ccccc3o1)=NC2
5. Fc1cccc2cc(C3=NCc4c(Cl)cc(Cl)cc4-n4cccc43)sc12

1: 4.43; 2: 6.96; 3: 5.99; 4: 7.07; 5: 5.73
